Values from PubChem BioAssay AID1159580

protocol.details: chemical genetic growth profiling, strain panel (AID 1159580);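 further: tested at 20 µM; growth read once vehicle control cultures reached saturation at 30 °C; 1 = growth at the plate median or of vehicle wells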
test.conditions: S. cerevisiae deletion strains, growth OD, locus YBL061C, strain skt5, stronger effect = lower value
Screen size: about 5,500 compounds; about 2,000 (36%) were called active. Roughly 18% stayed inconclusive and do not appear here. This is one part of the list.
Field 'label' (enum: 1.0 / 0.0). Set to 1.0 when normalized growth is strictly under 1; else 0.0.

Take the molecule COC(=O)/C=C/C(C)=C/C=C/C(C)=C/C=C/C=C(C)/C=C/C=C(C)/C=C/C(=O)O and say whether its normalized growth is less than 1.
0.0

Consider CN1CC(=O)N=C1N . Does its normalized growth lie strictly below 1?
0.0

Lab note: confirm whether the reported normalized growth for this molecule is below 1, equality not counting. molecule: O=S(=O)(O)CCS
1.0

Strictly below 1: is that where normalized growth of C[n+]1c2cc(N)ccc2cc2ccc(N)cc21 sits?
1.0

---

protocol.details: chemical genetic growth profiling, strain panel (AID 1159580)
test.conditions: S. cerevisiae deletion strains, growth OD, locus YNL248C, strain rpa49, stronger effect = lower value
The campaign covered roughly 5,500 compounds. About 2,000 (36%) were called active. Inconclusive results (about 18%) are left out. Some of the results follow.
Some molecules, each annotated with its measured normalized growth.
A bare number is all that is needed in reply.

molecule | normalized growth
O=C(O[C@@H]1Cc2c(O)cc(O)cc2O[C@@H]1c1ccc(O)c(O)c1)c1cc(O)c(O)c(O)c1 | 0.973
O=C(O[C@@H]1Cc2c(O)cc(O)cc2O[C@@H]1c1cc(O)c(O)c(O)c1)c1cc(O)c(O)c(O)c1 | 0.952
O=C1CCC(N2C(=O)c3ccccc3C2=O)C(=O)N1 (stereo not drawn) | 0.957
CN1C2CCC1CC(OC(c1ccccc1)c1ccccc1N)C2 (stereo not drawn) | 0.995
CC1(C)S[C@@H]2[C@H](NC(=O)[C@H](N)c3ccccc3)C(=O)N2[C@H]1C(=O)O | 0.907
CCN(CC)Cc1ccc(Nc2ccnc3cc(Cl)ccc23)cc1O | 1.03

State its normalized growth for this molecule: OCCc1ccccc1
0.994

Answer with reported normalized growth of C[C@H]1COc2c(N3CCN(C)CC3)c(F)cc3c(=O)c(C(=O)O)cn1c23
1.03

Please supply the value of reported normalized growth for the item CC(C)NCC(O)COc1cccc2[nH]ccc12 (stereo not drawn)
1

---

Entries and their normalized growth values follow.
protocol.details: chemical genetic growth profiling, strain panel (AID 1159580)
test.conditions: S. cerevisiae deletion strains, growth OD, locus YNL222W, strain SSU72, stronger effect = lower value
Screen size: about 5,500 compounds; about 2,000 (36%) were called active. Inconclusive results (about 18%) are left out. The list shows a part of the results.
Respond with the number and no other words.

compound | endpoint.name | quantitative.readout
COc1ccc(C(CC(=O)c2ccccc2)Sc2ccccc2N)cc1OC (stereo unspecified) | normalized growth | 0.979

Respond only with normalized growth recorded for Fc1cc(I)ccc1Nc1ccnc2cc(Cl)ccc12
0.996

Give the measured normalized growth for C/C(Cc1nnn(-c2cc(C)on2)n1)=N/OC(=O)Nc1ccc(Cl)cc1
0.993

Report normalized growth, nothing else, for this compound: O=C(Nc1cccc(C(F)(F)F)c1)c1cncc(C#Cc2ccccc2)c1
0.978

Provide only the value of recorded normalized growth for CC(C)c1ccc(COC(=O)Nc2ccc(CSc3ccc(Cl)cc3)o2)cc1
0.987

Quote normalized growth reported for O=C(ON=C1CCCCC1)c1ccc([N+](=O)[O-])cc1 please.
0.948

Give a short answer stating reported normalized growth for N/C(Cn1ccc(C(F)(F)F)n1)=N/OS(=O)(=O)c1cccc(Cl)c1Cl .
0.977

Please give measured normalized growth of the following entry: Cc1cc(C)cc(Sc2ccc3nnc(-c4ccccc4)n3n2)c1
0.983

State its normalized growth: COc1cc(Cl)ccc1N/N=C(/C#N)C(N)=O
0.105

Identify normalized growth associated with the compound Cc1cc(C(=O)NNS(=O)(=O)c2ccc(F)c(Cl)c2)nn1-c1c(Cl)cc(Cl)cc1Cl
0.99

Check the records and state normalized growth for O=C(/C=C/c1ccc2c(c1)OCO2)Nc1ccc(Br)cc1
0.966

Output normalized growth of Cc1ccc(S(=O)(=O)NC(=O)Nc2ccc(Sc3ccccc3)nc2Sc2ccccc2)cc1
0.948

Supply recorded normalized growth for CC(C)(C)c1ccc(C(=N)SC(C(=O)C(F)(F)F)c2ccccc2)cc1 (stereo unspecified) here.
0.989

// fetch normalized growth given entry COc1cccc(C2CCN(C(=O)c3cccc4ccccc34)CC2)c1
0.994

Give normalized growth for the following compound: Cc1ccc(Nc2ccnc3cc(Cl)ccc23)cc1F
1

Specify measured normalized growth for O=[N+]([O-])c1ccc(-c2noc(-c3ccno3)n2)o1 .
0.1

Answer with the recorded normalized growth for the compound listed here: CC(=O)c1ccc(Cl)c(NS(=O)(=O)c2cc(Cl)c(Cl)cc2Cl)c1
0.884

---

Reported normalized growth values for the following compounds.
protocol.details: chemical genetic growth profiling, strain panel (AID 1159580)
test.conditions: S. cerevisiae deletion strains, growth OD, locus YHR094C, strain hxt1, stronger effect = lower value
Out of some 5,500 compounds screened, about 2,000 (36%) were called active. Inconclusive results (about 18%) are left out. Some of the results follow.

A selection of reference data follows.
compound | result
CC(=O)Oc1cc(OC(C)=O)c2c(c1)O[C@H](c1ccc(OC(C)=O)c(OC(C)=O)c1)[C@@H](OC(C)=O)C2 | 0.985 (inactive)
CC1CCc2cc(F)cc3c(=O)c(C(=O)O)cn1c23 (stereo not drawn) | 0.983 (inactive)
Cc1ncc(CNC(=O)N(CCCl)N=O)c(N)n1 | 0.989 (inactive)
O=C(O[C@@H]1Cc2c(O)cc(O)cc2O[C@@H]1c1ccc(O)c(O)c1)c1cc(O)c(O)c(O)c1 | 1.03 (inactive)
CC(=O)O[C@H]1C[C@@H](OC(C)=O)C(C)(C)C2CC(=O)[C@]3(C)C(CC[C@@]4(C)[C@H](C(=O)O)OC(=O)C5OC543)[C@]21C (stereo partly drawn) | 0.992 (inactive)
O=C(Oc1cc(OC(=O)c2ccccc2)c2c(c1)O[C@H](c1ccc(OC(=O)c3ccccc3)c(OC(=O)c3ccccc3)c1)[C@@H](OC(=O)c1ccccc1)C2)c1ccccc1 | 1.03 (inactive)

Return reported normalized growth. Input compound: COc1c(N2CCNC(C)C2)c(F)cc2c(=O)c(C(=O)O)cn(C3CC3)c12 (stereo not drawn)
0.992 (inactive)

Identify measured normalized growth associated with CCn1cc(C(=O)O)c(=O)c2cc(F)c(N3CCNCC3)nc21
1.02 (inactive)

---

protocol.details: chemical genetic growth profiling, strain panel (AID 1159580);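 further: tested at 20 µM; growth read once vehicle control cultures reached saturation at 30 °C; 1 = growth at the plate median or of vehicle wells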
test.conditions: S. cerevisiae deletion strains, growth OD, locus YEL061C, strain CIN8 (second series), stronger effect = lower value
Hit rate of the full screen: of about 5,500 compounds, about 2,000 (36%) were called active. Another 18% or so got no clear call; they are omitted. This is one part of the list.
// values below are reported normalized growth

molecule | normalized growth
C=C1CCC2[C@](C)(CO)[C@H](O)CC[C@@]2(C)[C@@H]1C/C=C1/C(=O)OC[C@H]1O (stereo not given in full) | 0.99 (inactive)
C=C[C@@](C)(O)CCC1C(=C)C[C@H](OC(C)=O)C2C(C)(C)CCCC12C (stereo not given in full) | 1.03 (inactive)
C=C[C@@](C)(O)CCC1C(=C)CCC2[C@@](C)(CO)CCC[C@]12C (stereo not given in full) | 1.07 (inactive)
O=C1C(Cl)=C(Cl)C(=O)C(Cl)=C1Cl | 0.954 (inactive)

Provide normalized growth value for the following molecule: C=C[C@@](C)(O)CCC1C(=C)C[C@H](O)C2C(C)(C)CCCC12C (stereo not given in full)
0.992 (inactive)

---

protocol.details: chemical genetic growth profiling, strain panel (AID 1159580);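 further: tested at 20 µM; growth read once vehicle control cultures reached saturation at 30 °C; 1 = growth at the plate median or of vehicle wells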
test.conditions: S. cerevisiae deletion strains, growth OD, locus YER167W, strain BCK2, stronger effect = lower value
About 2,000 (36%) of roughly 5,500 compounds were called active. About 18% were inconclusive and are not listed. Some of the results follow.
endpoint.name: normalized growth
Lab note: jot down the number only; don't add units.

Please report normalized growth for the following compound: O=C(O)/C=C/c1ccc(O)c(O)c1
1.02

---

Entries and their measured normalized growth follow.
protocol.details: chemical genetic growth profiling, strain panel (AID 1159580);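 further: tested at 20 µM; growth read once vehicle control cultures reached saturation at 30 °C; 1 = growth at the plate median or of vehicle wells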
test.conditions: S. cerevisiae deletion strains, growth OD, locus YMR125W, strain sto1, stronger effect = lower value
Screen size: about 5,500 compounds; about 2,000 (36%) were called active. About 18% were inconclusive and are not listed. This is one part of the list.
Note: the reply should be a number with no unit written.

compound | quantitative.readout
Oc1cc(O)c2c(c1)O[C@H](c1cc(O)c(O)c(O)c1)[C@H](O)C2 | 1.02
COc1ccc(OC)c(C(O)CNC(=O)CN)c1 (centres undefined) | 1
Oc1cc(O)c2c(c1)O[C@H](c1ccc(O)c(O)c1)[C@H](O)C2 | 1

Provide one value: measured normalized growth of NCCCS(=O)(=O)O
1.02

Consider the compound Cc1ccc(C(=O)Nc2ccc(S(=O)(=O)O)c3cc(S(=O)(=O)O)cc(S(=O)(=O)O)c23)cc1NC(=O)c1cccc(NC(=O)Nc2cccc(C(=O)Nc3cc(C(=O)Nc4ccc(S(=O)(=O)O)c5cc(S(=O)(=O)O)cc(S(=O)(=O)O)c45)ccc3C)c2)c1 . State its measured normalized growth.
1.06

Using known records, supply normalized growth for C[C@@H]1CC(Cl)CC[C@H]1C(=O)OC(C)(C)C (some centres undefined)
0.962
